# assaySystem: human PCSK9 / human LDLR EGFa domain (Homo sapiens, UniProt Q8NBP7)
# Sequence (Q8NBP7 153-692): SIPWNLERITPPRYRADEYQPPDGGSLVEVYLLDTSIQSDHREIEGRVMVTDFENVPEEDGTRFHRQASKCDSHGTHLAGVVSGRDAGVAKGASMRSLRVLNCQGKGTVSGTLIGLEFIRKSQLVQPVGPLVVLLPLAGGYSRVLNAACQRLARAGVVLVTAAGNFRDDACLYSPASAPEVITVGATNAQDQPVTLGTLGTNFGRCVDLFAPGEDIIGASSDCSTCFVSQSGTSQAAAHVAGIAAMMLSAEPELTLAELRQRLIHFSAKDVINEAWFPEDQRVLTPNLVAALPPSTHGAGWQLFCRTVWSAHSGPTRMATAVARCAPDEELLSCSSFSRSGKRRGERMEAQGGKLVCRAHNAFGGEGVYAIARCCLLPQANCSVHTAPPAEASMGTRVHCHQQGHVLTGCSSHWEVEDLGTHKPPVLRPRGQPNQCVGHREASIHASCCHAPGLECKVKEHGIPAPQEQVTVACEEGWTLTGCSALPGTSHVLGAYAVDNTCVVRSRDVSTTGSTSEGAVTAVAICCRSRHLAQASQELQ
# assayMethodText: TR-FRET assay of inhibition of the PCSK9-LDLR protein-protein interaction
# condition: 20 nM human PCSK9, 20 nM human LDLR EGFa domain, 2 hours room temperature
pIC50: −log10 of the molar value. Numbered stars: 1 amine (or outer) side, 2 acyl side, 3 side chain; on linkers, the order of the positions; unused ones are H or OH. Bridge positions count the residues as written; N and C are the ends. Square brackets hold non-standard residues; d marks the D form. Peptide text beside a SMILES is read from it. ξ: configuration not given here. Phe(4-CF3) = N[C@@H](Cc1ccc(C(F)(F)F)cc1)C(=O)O; Trp(5-F) = N[C@@H](Cc1c[nH]c2ccc(F)cc12)C(=O)O; Asp(3,3-Me2) = CC(C)(C(=O)O)[C@H](N)C(=O)O; Phe(4-CN) = N#Cc1ccc(C[C@H](N)C(=O)O)cc1; X1 = O=C(CCSCc1cccc(CSCCN[*:1])c1)[*:2]; mXylylene = c1cc(C[*:1])cc(C[*:2])c1; NMeY = CN[C@@H](Cc1ccc(O)cc1)C(=O)O; NMeF = CN[C@@H](Cc1ccccc1)C(=O)O; hCha = N[C@@H](CCC1CCCCC1)C(=O)O; 4Pal = N[C@@H](Cc1ccncc1)C(=O)O; αMeP = C[C@@]1(C(=O)O)CCCN1; ξP = O=C(O)C1CCCN1; Mpa = O=C(O)CCS
endpointName: pIC50

Request body: readout pIC50, system human PCSK9 / human LDLR EGFa domain (Homo sapiens, UniProt Q8NBP7), query NCCCC[C@@H]1NC(=O)CCSCc2cccc(c2)CSCCNC(=O)C2CCCN2C(=O)[C@H](Cc2ccc(O)cc2)NC(=O)CNC(=O)[C@H]2CCCN2C(=O)[C@H](Cc2c[nH]c3ccc(F)cc23)NC(=O)[C@H](Cc2c[nH]c3ccc(F)cc23)NC(=O)CNC1=O (stereo partly shown) [Compound 041] (cyclo(G[Trp(5-F)][Trp(5-F)][dP]GY[ξP][X1]K)) . Return the value.
7.00 to 9.00

Request body: readout pIC50, system human PCSK9 / human LDLR EGFa domain (Homo sapiens, UniProt Q8NBP7), query C[C@@H]1NC(=O)[C@@H]2CCCN2C(=O)[C@H](Cc2ccncc2)NC(=O)[C@H](Cc2c[nH]c3ccc(F)cc23)NC(=O)CNC(=O)[C@H](CCCCN)NC(=O)CCSCc2cccc(c2)CSC[C@@H](C(N)=O)NC(=O)[C@@H]2CCCN2C(=O)[C@H](Cc2ccc(O)cc2)NC1=O [Compound 021] ([Mpa]KG[Trp(5-F)][4Pal]PAYPC-NH2; linker 1-10 via mXylylene) . Return the value.
6.00 to 7.00

Request body: readout pIC50, system human PCSK9 / human LDLR EGFa domain (Homo sapiens, UniProt Q8NBP7), query COc1ccc(C[C@H]2C(=O)N3CCC[C@H]3C(=O)NCCSCc3cccc(c3)CSCCC(=O)N3CCC[C@H]3C(=O)N[C@H](C)C(=O)N[C@@H](Cc3c[nH]c4ccc(F)cc34)C(=O)N[C@@H](Cc3c[nH]c4ccc(F)cc34)C(=O)N3CCC[C@H]3C(=O)N[C@@H](C)C(=O)N2C)cc1 [Compound 053] (cyclo(A[NMeY](Me)P[X1]P[dA][Trp(5-F)][Trp(5-F)]P)) . Return the value.
6.00 to 7.00

Request body: readout pIC50, system human PCSK9 / human LDLR EGFa domain (Homo sapiens, UniProt Q8NBP7), query C[C@@H]1NC(=O)[C@@H]2CCCN2C(=O)[C@H](CCC2CCCCC2)NC(=O)[C@H](Cc2c[nH]c3ccc(F)cc23)NC(=O)CNC(=O)[C@H](CCCCN)NC(=O)CCSCc2cccc(c2)CSC[C@@H](C(N)=O)NC(=O)[C@@H]2CCCN2C(=O)[C@H](Cc2ccc(O)cc2)NC1=O [Compound 026] ([Mpa]KG[Trp(5-F)][hCha]PAYPC-NH2; linker 1-10 via mXylylene) . Return the value.
7.00 to 9.00

Request body: readout pIC50, system human PCSK9 / human LDLR EGFa domain (Homo sapiens, UniProt Q8NBP7), query C[C@@H]1NC(=O)[C@@H]2CCCN2C(=O)[C@H](Cc2c[nH]c3ccc(F)cc23)NC(=O)[C@H](Cc2c[nH]c3ccc(F)cc23)NC(=O)[C@@H](C)NC(=O)[C@@H]2CCCN2C(=O)CCSCc2cccc(c2)CSCCNC(=O)[C@@H]2CCCN2C(=O)[C@H](Cc2ccccc2)N(C)C1=O [Compound 051] (cyclo(A[NMeF]P[X1]P[dA][Trp(5-F)][Trp(5-F)]P)) . Return the value.
7.00 to 9.00

Request body: readout pIC50, system human PCSK9 / human LDLR EGFa domain (Homo sapiens, UniProt Q8NBP7), query CC(C)(C(=O)O)[C@@H]1NC(=O)[C@H](Cc2c[nH]c3ccc(F)cc23)NC(=O)[C@H](Cc2c[nH]c3ccc(F)cc23)NC(=O)CNC(=O)[C@H](CCCCN)NC(=O)CCSCc2cccc(c2)CSC[C@@H](C(N)=O)NC(=O)[C@]2(C)CCCN2C(=O)[C@H](Cc2ccc(O)cc2)NC(=O)[C@H](Cc2cnc[nH]2)NC1=O [Compound 115] ([Mpa]KG[Trp(5-F)][Trp(5-F)][Asp(3,3-Me2)]HY[αMeP]C-NH2; linker 1-10 via mXylylene) . Return the value.
6.00 to 7.00

Request body: readout pIC50, system human PCSK9 / human LDLR EGFa domain (Homo sapiens, UniProt Q8NBP7), query C[C@@H]1NC(=O)[C@@H]2CCCN2C(=O)[C@H](Cc2ccc(C(F)(F)F)cc2)NC(=O)[C@H](Cc2c[nH]c3ccc(F)cc23)NC(=O)CNC(=O)[C@H](CCCCN)NC(=O)CCSCc2cccc(c2)CSC[C@@H](C(N)=O)NC(=O)[C@@H]2CCCN2C(=O)[C@H](Cc2ccc(O)cc2)NC1=O [Compound 007] ([Mpa]KG[Trp(5-F)][Phe(4-CF3)]PAYPC-NH2; linker 1-10 via mXylylene) . Return the value.
4.92 to 6.00

Request body: readout pIC50, system human PCSK9 / human LDLR EGFa domain (Homo sapiens, UniProt Q8NBP7), query COc1ccc(C[C@@H]2NC(=O)[C@H]([C@@H](C)O)NC(=O)CN3CCCCCOc4cccc(c4)C[C@@H](NC(=O)[C@@H](C)NC(=O)[C@H](C)NC(=O)CCSCc4cccc(c4)CSCCNC(=O)[C@]4(C)CCCN4C2=O)C(=O)N[C@@H](Cc2c[nH]c4ccc(F)cc24)C3=O)cc1 [Compound 125] . Return the value.
6.00 to 7.00

Request body: readout pIC50, system human PCSK9 / human LDLR EGFa domain (Homo sapiens, UniProt Q8NBP7), query C[C@@H]1NC(=O)CCSCc2cccc(c2)CSC[C@@H](C(N)=O)NC(=O)[C@@H]2CCCN2C(=O)[C@H](Cc2ccc(C#N)cc2)NC(=O)[C@H](C)NC(=O)[C@@H]2CCCN2C(=O)[C@H](Cc2c[nH]c3ccc(F)cc23)NC(=O)[C@H](Cc2c[nH]c3ccc(F)cc23)NC(=O)[C@@H](C)NC1=O [Compound 081] ([Mpa]A[dA][Trp(5-F)][Trp(5-F)]PA[Phe(4-CN)]PC-NH2; linker 1-10 via mXylylene) . Return the value.
4.92 to 6.00

Request body: readout pIC50, system human PCSK9 / human LDLR EGFa domain (Homo sapiens, UniProt Q8NBP7), query C[C@H]1NC(=O)[C@H]2CCCN2C(=O)[C@H](Cc2c[nH]c3ccc(F)cc23)NC(=O)[C@H](Cc2c[nH]c3ccc(F)cc23)NC(=O)CNC(=O)[C@H](CCCCN)NC(=O)CCSCc2cccc(c2)CSCCNC(=O)C2CCCN2C(=O)[C@H](Cc2ccc(O)cc2)NC1=O (stereo partly shown) [Compound 040] (cyclo(G[Trp(5-F)][Trp(5-F)][dP][dA]Y[ξP][X1]K)) . Return the value.
7.00 to 9.00
